- MEASUREMENT_TARGET: human AXL (473-end) (Homo sapiens, UniProt P30530)
- Construct: human AXL (473-end); purchased SignalChem, Canada
- Sequence (P30530 473-894 limits assumed): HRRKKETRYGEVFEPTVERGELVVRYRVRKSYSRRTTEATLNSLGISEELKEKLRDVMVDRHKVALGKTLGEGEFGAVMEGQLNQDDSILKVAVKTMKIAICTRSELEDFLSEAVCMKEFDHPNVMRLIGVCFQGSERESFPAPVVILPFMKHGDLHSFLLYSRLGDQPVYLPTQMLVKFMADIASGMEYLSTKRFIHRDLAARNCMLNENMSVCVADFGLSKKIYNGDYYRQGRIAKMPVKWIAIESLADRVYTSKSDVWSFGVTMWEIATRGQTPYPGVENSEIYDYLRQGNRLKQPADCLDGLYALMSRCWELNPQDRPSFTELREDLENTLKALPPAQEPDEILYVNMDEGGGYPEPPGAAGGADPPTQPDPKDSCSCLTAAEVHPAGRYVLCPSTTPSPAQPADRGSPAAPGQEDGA
- ASSAY_SUMMARY: HTRF kinase activity biochemical assay, AXL
- CONDITIONS_USED: 10 μM ATP, 30 minutes pre-incubation
REPORTED_ENDPOINT: IC50

Here's what some known entries look like.
>  <MOLECULE>
Cc1nn(C)cc1-c1cnc(N)c(C(=O)N[C@H]2COC[C@@H]2OCc2ccc(-c3ccc4c(c3)C(C)(C)CN4C3CCN(CCO)CC3)cc2)c1 [Example 42]

>  <MEASUREMENT_TARGET>
human AXL (473-end) (Homo sapiens, UniProt P30530)

>  <IC50>
< 10 nM

$$$$
>  <MOLECULE>
CN1CCN([C@H]2CCCc3cc(-c4ccc(CO[C@H]5CCC[C@@H]5NC(=O)c5cc(-c6cccnc6F)cnc5N)cc4)ccc32)CC1 [Example 163]

>  <MEASUREMENT_TARGET>
human AXL (473-end) (Homo sapiens, UniProt P30530)

>  <IC50>
< 10 nM

$$$$
>  <MOLECULE>
CC1(C)CN(C2CCN(CCO)CC2)c2ccc(-c3ccc(CO[C@H]4CCC[C@@H]4NC(=O)c4nc(-c5ccc(F)nc5)cnc4N)cc3)cc21 [Example 41]

>  <MEASUREMENT_TARGET>
human AXL (473-end) (Homo sapiens, UniProt P30530)

>  <IC50>
10 to 100 nM

$$$$
>  <MOLECULE>
Nc1ncc(C(F)(F)F)cc1C(=O)N[C@H]1COC[C@@H]1OCc1ccc(-c2ccc3c(ccn3C3CCN(CCO)CC3)c2)cc1 [Example 24]

>  <MEASUREMENT_TARGET>
human AXL (473-end) (Homo sapiens, UniProt P30530)

>  <IC50>
100 to 1000 nM

$$$$
>  <MOLECULE>
Nc1ncc(C(F)(F)F)cc1C(=O)N[C@H]1CCC[C@@H]1OCc1ccc(-c2ccc3c(c2)OCCC3N2CCN(CCO)CC2)cc1 (stereo partly drawn) [Example 133]

>  <MEASUREMENT_TARGET>
human AXL (473-end) (Homo sapiens, UniProt P30530)

>  <IC50>
< 10 nM

$$$$

Query molecule follows.
Supply reported IC50 belonging to this molecule: CN1CCN(C2CCCc3cc(-c4ccc(CO[C@H]5CCC[C@@H]5NC(=O)c5cc(-c6cnn(C)c6)cnc5N)cc4)ccc32)CC1 (stereo partly drawn) [Example 120]
< 10 nM

###

- MEASUREMENT_TARGET: human TYRO3 (455-end) (Homo sapiens, UniProt Q06418)
- Construct: TYRO3 (455-end); purchased SignalChem, Canada
- Sequence (Q06418 455-890 limits assumed): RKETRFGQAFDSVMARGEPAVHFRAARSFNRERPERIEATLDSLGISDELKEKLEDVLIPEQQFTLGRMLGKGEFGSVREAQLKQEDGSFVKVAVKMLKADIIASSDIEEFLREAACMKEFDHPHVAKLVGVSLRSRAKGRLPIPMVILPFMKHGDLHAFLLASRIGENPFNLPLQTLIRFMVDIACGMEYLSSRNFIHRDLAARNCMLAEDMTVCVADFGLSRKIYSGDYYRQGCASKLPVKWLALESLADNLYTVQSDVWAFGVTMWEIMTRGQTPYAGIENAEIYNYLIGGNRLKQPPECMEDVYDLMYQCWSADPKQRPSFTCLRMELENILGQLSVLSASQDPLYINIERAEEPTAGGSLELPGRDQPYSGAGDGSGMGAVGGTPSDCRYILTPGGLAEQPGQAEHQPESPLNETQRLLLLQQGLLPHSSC
- ASSAY_SUMMARY: HTRF kinase activity biochemical assay, TYRO3
- CONDITIONS_USED: 10 μM ATP, 30 minutes pre-incubation; read-out: HTRF TYRO IC50
pIC50: −log10 of the molar value.
Record form. Attribute: pIC50. Fill in for each entry.

In the examples that follow, each entry is paired with its recorded pIC50.
>  <MOLECULE>
CCCC1(C)CN(C2CCN(CCO)CC2)c2ccc(-c3ccc(CO[C@H]4CCC[C@@H]4NC(=O)c4cc(-c5cnn(C)c5)cnc4N)cc3)cc21 (mixture of isomers)

>  <MEASUREMENT_TARGET>
human TYRO3 (455-end) (Homo sapiens, UniProt Q06418)

>  <pIC50>
> 8.00

$$$$
>  <MOLECULE>
Cn1cc(-c2cnc(N)c(C(=O)N[C@H]3CCC[C@@H]3OCc3ccc(-c4ccc5c(c4)CCCC5N4CCNCC4)cc3)c2)cn1 (stereo partly drawn)

>  <MEASUREMENT_TARGET>
human TYRO3 (455-end) (Homo sapiens, UniProt Q06418)

>  <pIC50>
7.00 to 8.00

$$$$
>  <MOLECULE>
Cn1cc(-c2cnc(N)c(C(=O)N[C@H]3CCC[C@@H]3OCc3ccc(-c4ccc5c(c4)C4(CC4)CN5C4CCN(CCO)CC4)cc3)c2)cn1

>  <MEASUREMENT_TARGET>
human TYRO3 (455-end) (Homo sapiens, UniProt Q06418)

>  <pIC50>
7.00 to 8.00

$$$$
>  <MOLECULE>
Nc1ncc(-c2cncs2)cc1C(=O)N[C@H]1CCC[C@@H]1OCc1ccc(-c2ccc3c(c2)CC[C@@H]3N2CCN(CCO)CC2)cc1

>  <MEASUREMENT_TARGET>
human TYRO3 (455-end) (Homo sapiens, UniProt Q06418)

>  <pIC50>
7.00 to 8.00

$$$$

Hey, can you go through the list below and give me pIC50 for every item?
1. CN1CC(C(=O)NC2Cc3ccc(-c4ccc(CO[C@H]5CCC[C@@H]5NC(=O)c5cc(-c6cnn(C)c6)cnc5N)cc4)cc3C2)C1 (stereo partly drawn)
2. Cn1cc(-c2cnc(N)c(C(=O)N[C@H]3CCC[C@@H]3OCc3ccc(-c4ccc5c(ccn5C5CCN(C(=O)OC(C)(C)C)CC5)c4)cc3)c2)cn1

["< 6.00", "< 6.00"]
